Biological target: hCMV UL128 + UL130 + UL131A (HEK293T co-transfectant) (hCMV, UniProt P16837 1-171; P16772 1-214)
Sequence (P16837 whole entry, chain 1 of 2): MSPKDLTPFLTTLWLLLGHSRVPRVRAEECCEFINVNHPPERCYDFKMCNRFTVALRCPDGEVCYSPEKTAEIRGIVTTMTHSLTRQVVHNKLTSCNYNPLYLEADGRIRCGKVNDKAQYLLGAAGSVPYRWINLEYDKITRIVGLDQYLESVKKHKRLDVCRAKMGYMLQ
Sequence (P16772 whole entry, chain 2 of 2): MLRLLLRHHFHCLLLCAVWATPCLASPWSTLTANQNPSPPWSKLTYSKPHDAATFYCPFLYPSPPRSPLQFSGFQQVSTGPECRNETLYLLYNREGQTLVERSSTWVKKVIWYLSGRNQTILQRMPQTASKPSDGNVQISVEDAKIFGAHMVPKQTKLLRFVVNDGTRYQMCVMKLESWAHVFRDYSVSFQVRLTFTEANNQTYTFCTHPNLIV
Experiment: cell-based or functional assay
test.readout: 50% neutralization VR1814, MRC-9

binder="2C12 (antibody, V domains shown, human IgG; also called 2C12-biotin) VH: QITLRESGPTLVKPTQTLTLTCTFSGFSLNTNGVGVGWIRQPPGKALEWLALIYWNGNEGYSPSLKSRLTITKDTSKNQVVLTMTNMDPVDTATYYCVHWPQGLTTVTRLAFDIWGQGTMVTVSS VL: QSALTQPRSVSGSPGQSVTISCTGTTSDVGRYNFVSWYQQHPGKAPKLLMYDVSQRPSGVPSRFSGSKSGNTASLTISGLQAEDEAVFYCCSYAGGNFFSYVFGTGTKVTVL" result="≤ 2 µg/mL"
binder="9I6 (antibody, V domains shown, human IgG; also called 9I6-biotin; 916) VH: EVQLVQSGAEVKKPGESLKISCRESGDTFPAYWIAWVRQMPGKGLEWMGIIYPIDSETTYSPSFQGQVTISADKSINTAYLQWSSLKASDSAIYYCARGTSTGLREAFHIWGQGTMVTVSS VL: DVVMTQSPLSLAVTLGQPAYISCRSSQSLGYSDGNTYLNWFQQRPGQSPRRLIYEVSNRDSGVPDRFSGSGSGTDFTLKISRVEAEDVGTYYCMQGTHWPPMCSFGQGTKLEIK" result="> 2 µg/mL"
binder="8J16 (antibody, V domains shown, human IgG; also called 8J16-biotin) VH: QVQLQESGPGLVKPSETLSLTCSVSGGFTSSYYWSWIRQAPGKGLEWIGYVYYGESTDYNPSLKSRATISIDTSKNQFSLKLSSVTAADTAVYYCAREVDKRGFDYWGQGALVTVSS VL: EIVLTQSPGTLSLSPGERATLSCRASQSVSGGYLAWYQQEPGQAPRLVIYGASSRATGIPDRFSASGSGTDFTLTITRLEPEDFAVYYCQQYGRTPLTFGGGTKVEIK" result="> 2 µg/mL"
